- Test system: Monocots
- assayName: Herbicidal activity, postemergence, monocot weeds (Table II)
- Format: in vivo
- appliedConditions: post-emergence, 336 h, 2 lb./A., about 2 weeks, read-out: % control (percent of plants killed)
assayEndpoint: pest or weed control at 2241.7 g/ha (%)

molecule | studyTarget | assayEndpoint | reportedMeasurement
CN(C)CCOc1cc(Oc2ccc(C(F)(F)F)cc2Cl)ccc1[N+](=O)[O-] [Example 17] | Monocots | pest or weed control at 2241.7 g/ha | 39
Nc1cc(Oc2ccc(C(F)(F)F)cc2Cl)ccc1[N+](=O)[O-] [Example 27] | Monocots | pest or weed control at 2241.7 g/ha | 99
CSCCOc1cc(Oc2ccc(C(F)(F)F)cc2Cl)ccc1[N+](=O)[O-] [Example 40] | Monocots | pest or weed control at 2241.7 g/ha | 81
COC(=O)C(C)Oc1cc(Oc2ccc(C(F)(F)F)cc2Cl)ccc1[N+](=O)[O-] (centres unmarked) [Example 50] | Monocots | pest or weed control at 2241.7 g/ha | 100
C=CCOc1cc(Oc2ccc(C(F)(F)F)cc2Cl)ccc1[N+](=O)[O-] [Example 12] | Monocots | pest or weed control at 2241.7 g/ha | 99
